Known EC50 of a selection of compounds
- ASSAY_SYSTEM: Lysophosphatidic acid receptor 1 (Homo sapiens, UniProt Q92633)
- Sequence (Q92633 whole entry): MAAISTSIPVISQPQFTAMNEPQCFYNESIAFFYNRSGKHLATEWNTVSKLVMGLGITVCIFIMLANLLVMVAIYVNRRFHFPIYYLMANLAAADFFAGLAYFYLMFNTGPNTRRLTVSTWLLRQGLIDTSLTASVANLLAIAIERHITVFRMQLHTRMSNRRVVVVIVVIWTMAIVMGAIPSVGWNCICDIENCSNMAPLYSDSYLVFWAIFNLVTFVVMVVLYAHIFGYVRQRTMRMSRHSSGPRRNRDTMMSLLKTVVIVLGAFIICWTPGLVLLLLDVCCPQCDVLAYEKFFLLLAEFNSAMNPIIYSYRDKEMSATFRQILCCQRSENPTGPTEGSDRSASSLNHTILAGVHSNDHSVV
- PROCEDURE_SUMMARY: Calcium Mobilization Assay

[
  {
    "TEST_SMILES": "C[C@@H](OC(=O)Nc1c(-c2ccc(NC(=O)[C@H]3C[C@@](F)(C#N)C3)cn2)nnn1C)c1cccnc1Cl",
    "EC50": "1.7 µM"
  },
  {
    "TEST_SMILES": "C[C@@H](OC(=O)Nc1c(-c2ccc(NC(=O)N3CCOCC3)cn2)nnn1C)c1cccnc1Cl",
    "EC50": "0.989 µM"
  }
]

Shift focus to the following entry.
IN: For the compound CCNC(=O)Nc1ccc(-c2nnn(C)c2NC(=O)O[C@H](C)c2cccnc2Cl)cn1 , give its measured EC50 value.
OUT: ≥ 10 µM

Provenance of the data: BindingDB's records for patent US11912686
